- procedureDetails: Determination of the microsomal half-life, human liver microsomes
- statedConditions: human, liver microsomes, pH 7.4
measuredMetric: microsomal CLint at 0.5 μM

### Prompt Record request: microsomal CLint at 0.5 μM value, item O=C1c2cccc(-c3cc[nH]n3)c2CN1CCc1nc2ccccc2s1 [compound 428]
### Response 100 to 220 µL/min/mg

### Prompt Similarly, O=C1c2c(-c3cn[nH]c3)ccnc2CN1CCc1ccc2ccccc2n1 [Example 156] ?
### Response < 100 µL/min/mg

### Prompt Next up: O=C1c2c(cccc2N2CCOCC2)CN1CCc1cccc(-c2ncccn2)c1 [Example 120]
### Response 100 to 220 µL/min/mg

### Prompt Repeat for the following molecule: Cn1c(CCN2Cc3nccc(-c4cncnc4)c3C2=O)nc2ccccc21 [Example 364]
### Response < 100 µL/min/mg

### Prompt Next entry: O=C1c2c(cccc2-c2cccnc2)CN1CCc1cn2ccccc2n1 [Example 235]
### Response 100 to 220 µL/min/mg

---

pIC50: −log10 of the molar value. Counter-ions that a name gives are not always drawn.
# PDE10A (human) (Homo sapiens, UniProt Q9Y233): pIC50 values follow
# Sequence (Q9Y233 whole entry): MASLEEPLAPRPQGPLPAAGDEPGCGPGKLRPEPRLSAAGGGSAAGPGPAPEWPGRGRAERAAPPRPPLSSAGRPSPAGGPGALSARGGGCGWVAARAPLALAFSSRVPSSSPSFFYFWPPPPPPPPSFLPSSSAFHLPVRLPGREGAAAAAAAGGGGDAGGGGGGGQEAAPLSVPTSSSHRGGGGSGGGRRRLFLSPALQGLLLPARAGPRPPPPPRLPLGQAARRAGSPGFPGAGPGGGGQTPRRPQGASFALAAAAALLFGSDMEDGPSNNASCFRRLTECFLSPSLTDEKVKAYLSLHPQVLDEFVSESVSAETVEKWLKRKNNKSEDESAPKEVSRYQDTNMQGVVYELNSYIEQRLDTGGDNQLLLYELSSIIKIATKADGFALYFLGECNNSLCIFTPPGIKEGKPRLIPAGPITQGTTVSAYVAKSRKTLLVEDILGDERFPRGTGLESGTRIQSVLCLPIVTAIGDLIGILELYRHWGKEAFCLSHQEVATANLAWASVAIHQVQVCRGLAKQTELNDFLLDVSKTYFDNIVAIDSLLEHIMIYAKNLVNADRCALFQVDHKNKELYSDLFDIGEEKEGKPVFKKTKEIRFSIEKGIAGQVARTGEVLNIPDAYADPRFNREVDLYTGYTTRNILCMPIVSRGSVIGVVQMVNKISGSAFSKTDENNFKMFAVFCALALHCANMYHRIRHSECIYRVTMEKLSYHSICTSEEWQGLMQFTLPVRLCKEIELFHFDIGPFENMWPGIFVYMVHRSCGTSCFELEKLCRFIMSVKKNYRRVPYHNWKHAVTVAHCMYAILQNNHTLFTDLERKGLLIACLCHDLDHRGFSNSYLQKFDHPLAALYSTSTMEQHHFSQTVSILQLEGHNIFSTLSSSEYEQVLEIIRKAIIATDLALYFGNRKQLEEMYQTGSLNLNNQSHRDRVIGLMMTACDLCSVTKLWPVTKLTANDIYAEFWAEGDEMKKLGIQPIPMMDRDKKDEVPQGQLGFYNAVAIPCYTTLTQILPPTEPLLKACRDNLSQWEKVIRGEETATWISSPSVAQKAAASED

molecule="O=C1c2c(cccc2N2CCCC3NCCCC32)CN1CCc1ccc2ccccc2n1 (stereo not shown) [Example 279, trifluoroacetate]" testedsystem="PDE10A (human) (Homo sapiens, UniProt Q9Y233)" measuredmetric=pIC50 result="6.30 to 6.70"
molecule="Cc1ccc2c(c1)nc(CCN1Cc3cccc(-c4ccncc4)c3C1=O)n2C [Example 301, trifluoroacetate]" testedsystem="PDE10A (human) (Homo sapiens, UniProt Q9Y233)" measuredmetric=pIC50 result="> 7.00"
molecule=O=C1c2c(cccc2-c2ccsc2)CN1CCc1ccc2ccccc2n1 testedsystem="PDE10A (human) (Homo sapiens, UniProt Q9Y233)" measuredmetric=pIC50 result="6.70 to 7.00"

As a next step, examine the molecule that follows.
### Prompt What value of measured pIC50 is listed for "O=C1c2c(N3CCC4(COC4)C3)ccnc2CN1CCc1ccc2ccccc2n1" ?
### Response > 7.00

---

- procedureDetails: Determination of the microsomal half-life, rat liver microsomes
- statedConditions: rat, liver microsomes, pH 7.4
Structures can show the parent of a compound that is named as a salt.
measuredMetric: microsomal CLint at 0.5 μM

Example results:
compound="O=C1c2c(N3CCS(=O)(=O)CC3)ccnc2CN1CCc1nc2ccccc2s1 [compound 390, trifluoroacetate]" result="100 to 220 µL/min/mg"
compound=O=C1c2cccc(N3CCS(=O)(=O)CC3)c2CN1CCc1ccc2ccccc2n1 result="< 100 µL/min/mg"
compound=O=C1c2c(cccc2-c2ccc3nc[nH]c3c2)CN1CCc1cn2ccccc2n1 result="< 100 µL/min/mg"
compound=Cc1cccc(CCN2Cc3nccc(N4CCOCC4)c3C2=O)n1 result="> 220 µL/min/mg"
compound=O=C1c2c(cccc2N2CCOCC2)CN1CCc1cccc(-c2ncccn2)c1 result="100 to 220 µL/min/mg"
compound=O=C1c2c(cccc2N2CCS(=O)(=O)CC2)CN1CCc1nc2ccccn2n1 result="< 100 µL/min/mg"

Next compound, please.
### Prompt For the compound "O=C1Cc2ccc(-c3cccc4c3C(=O)N(CCc3cn5ccccc5n3)C4)cc2N1" , what microsomal CLint at 0.5 μM is on record?
### Response < 100 µL/min/mg
